Source: paper PMC4230422

system: RT-112; assay: CellTiter-Glo ATP cell viability assay, RT-112; type: cell-based, human; settings: RT-112, 72 h of HDAC8 inhibitor treatment, listed as c6
pIC50: −log10 of the molar value.
measurementLabel: pIC50

*Q* Answer with the recorded pIC50 of O=C(NO)c1ccc(-c2cccc3ccccc23)cc1 [Compound 6, 4-naphtyl-benzoil hydroxamic acid] only.
*A* ~5.04
